Assay: Permeability experiment of Caco-2 cells
Format: in vitro ADME
Condition Context: human, pH 7.4; Caco-2, 5 μM, 2 hours
Endpoint Name: Papp B→A at 2 h, 5 μM (×10⁻⁶ cm/s)
Return type: number; implicit unit ×10⁻⁶ cm/s.

// recorded Papp B→A at 2 h, 5 μM for O=C(c1ccc(F)cn1)N1CC[C@@]2(C[C@@H](O)c3cc(-c4ccccc4C4CC4)ccc32)C1 : 9.58

###

Assay: Pharmacokinetic experiments in male SD rats
Format: in vivo, rat
Condition Context: male, SD, rat, plasma, intravenous, 2 mg/kg
Endpoint Name: half-life (h)
Give the value in h but do not write h after it.

Please fill in: half-life reported for O=C(c1ccc(F)cn1)N1CCC2(CC(O)c3cc(-c4ccccc4C4CC4)ccc32)C1 (stereo not shown) = 1.63

###

Target: hTRPV3 (Homo sapiens, UniProt Q8NET8)
Construct: expressed in transfected cells; host or cells: HEK-293
Sequence (Q8NET8 1-790): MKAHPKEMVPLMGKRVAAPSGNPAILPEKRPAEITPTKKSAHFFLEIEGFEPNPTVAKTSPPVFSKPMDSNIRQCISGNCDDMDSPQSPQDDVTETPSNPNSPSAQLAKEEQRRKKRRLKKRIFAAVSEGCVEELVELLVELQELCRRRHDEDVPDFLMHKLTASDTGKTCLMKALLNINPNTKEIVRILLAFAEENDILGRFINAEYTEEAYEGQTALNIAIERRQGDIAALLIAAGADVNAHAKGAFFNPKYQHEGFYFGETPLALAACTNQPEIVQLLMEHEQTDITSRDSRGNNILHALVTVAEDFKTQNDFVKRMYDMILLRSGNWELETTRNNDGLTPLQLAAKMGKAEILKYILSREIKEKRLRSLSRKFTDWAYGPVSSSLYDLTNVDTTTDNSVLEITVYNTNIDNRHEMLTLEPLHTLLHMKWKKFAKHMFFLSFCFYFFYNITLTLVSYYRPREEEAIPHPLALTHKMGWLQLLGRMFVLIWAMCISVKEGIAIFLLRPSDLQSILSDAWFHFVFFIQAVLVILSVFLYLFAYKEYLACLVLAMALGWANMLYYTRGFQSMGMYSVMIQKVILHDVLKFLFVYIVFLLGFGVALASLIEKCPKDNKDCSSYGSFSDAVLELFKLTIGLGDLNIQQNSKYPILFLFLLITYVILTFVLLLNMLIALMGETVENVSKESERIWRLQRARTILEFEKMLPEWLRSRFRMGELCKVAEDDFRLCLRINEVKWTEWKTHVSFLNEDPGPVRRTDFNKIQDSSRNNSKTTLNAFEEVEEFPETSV
Assay: Whole cell patch clamp inhibition rate test on HEK-293 cells instantaneously expressing TRPV3
Type: cell-based
Condition Context: HEK293; hTRPV3, single concentration 0.3 μM
Endpoint Name: inhibition at 0.3 µM

For record CC(C)c1ccccc1Sc1ccc2c(c1)C(O)CC21CCN(C(=O)c2ccc(F)cn2)C1 (centres unmarked) the listed inhibition at 0.3 µM is 70 to 100%

Kindly note the recorded inhibition at 0.3 µM for CC(C)c1ccccc1-c1ccc2c(c1)C(O)CC21CCN(C(=O)c2ccc(Cl)cn2)C1 (centres unmarked) , which is 70 to 100%

// Cc1cccc(-c2ccc3c(c2)C(O)CC32CCN(C(=O)c3ccc(F)cn3)C2)c1C1CC1 (centres unmarked) : inhibition at 0.3 µM value = 70 to 100%

Documented inhibition at 0.3 µM of CCc1nccnc1Oc1ccc2c(c1)C(O)CC21CCN(C(=O)c2ccc(F)cn2)C1 (centres unmarked) : < 25%

inhibition at 0.3 µM for O=C(c1ccc(F)cn1)N1CCC2(C[C@@H](O)c3cc(-c4ccccc4C4CC4)ccc32)C1 (some centres unmarked) is 70 to 100%
